Target: T1, DGI-2 polypeptide (UniProt Q15004 1-111, limits assumed)
T1 construct: Soluble recombinant protein coated at 500 ng/well; vector tag of pIVEX2.3-MCS not described for this construct; also called KIAA0101
T1 sequence (looked up): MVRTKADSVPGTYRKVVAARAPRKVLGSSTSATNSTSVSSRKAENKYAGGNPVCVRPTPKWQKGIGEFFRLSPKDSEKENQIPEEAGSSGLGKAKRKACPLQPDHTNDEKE
Assay: phage ELISA
Measure name: DGI-2/LDH (ratio)
Numbers only, in ratio.

State the recorded DGI-2/LDH for every item in the following list.
1. RRILPWSFPGCGRMCAAAGAPVPYPDPLEPRP [DGJ-2-20R-3-A10]
2. QLDCLVWGLPGLRCDRPLEQAAAGAPVPYPDPLEPRP [DGI-2-20R-3-B10]
3. RGVNSDMPRLYICRADGQGQAAAGAPVPYPDPLEPRP [DGI-2-20F-PP-H6]

## Result
1: 5.9; 2: 7.6; 3: 1.9
